Tested on: OVCAR-4
Assay Name: NCI tumour cell line growth inhibition, 48 h
The source made the active and inactive calls. No stated cut-off is given here; in the data, active = GI50 up to about 1.1 µM and inactive = higher. Residues, ends and D or L forms follow the SMILES beside them. *: point of attachment. Fmoc = O=C(OCC1c2ccccc2-c2ccccc21)*; Boc = CC(C)(C)OC(=O)*
Outcomes: 1 = active, 0 = inactive

- Compound: "CCN(CC(O)COc1ccc2c(c1)[n+]([O-])nc(N)[n+]2[O-])C(C)=O (configuration not stated)"
  Answer Label: 0
- Compound: "O=C1CCCC/C1=C\\c1ccc(Cl)c(Cl)c1"
  Answer Label: 0
- Compound: "O=c1/c(=C/c2ccc(-c3ccc(Cl)cc3Cl)o2)sc2n1[C@@H](c1ccc3c(c1)OCO3)C=C(c1cc(F)c(Cl)cc1Cl)N=2"
  Answer Label: 0
- Compound: "CC(C#N)(c1ccccc1)N(CCc1ccccc1)C(=O)Oc1ccccc1 (configuration not stated)"
  Answer Label: 0
- Compound: "CN1CCC(CNC(=O)CCCCCCCCC(=O)NCC2(c3ccccc3)CCN(C)CC2)(c2ccccc2)CC1"
  Answer Label: 0
- Compound: "CCN(CCCl)c1cc(CN(C)C)cc(NC(=O)c2ccc(C(=O)Nc3cccc(CN(C)C)c3)cc2)c1"
  Answer Label: 1
- Compound: "c1ccc(COC2C3COC(O3)C(OCc3ccccc3)C2OCc2ccccc2)cc1 (configuration not stated)"
  Answer Label: 0
- Compound: "O=C1NI(C#Cc2ccccc2)c2ccccc21"
  Answer Label: 0
- Compound: "COC(=O)c1ccc(NCC2=CC(=O)C=CC2=O)cc1O"
  Answer Label: 0
- Compound: "CC(C)(C)OC(=O)NCCCCC(NC(=O)C(Cc1c[nH]c2ccccc12)NC(=O)OCC1c2ccccc2-c2ccccc21)C(=O)N1CCCC1C(=O)NCC(N)=O (configuration not stated) (Fmoc-WK(Boc)PG-NH2; configuration not given here)"
  Answer Label: 0
- Compound: "C[C@H](CCC(=O)O)[C@H]1CC[C@H]2[C@@H]3[C@@H](O)C[C@@H]4C[C@H](O)CC[C@]4(C)[C@H]3C[C@H](O)[C@]12C"
  Answer Label: 0
- Compound: "COC1O[C@H]2[C@H]3[C@@H]1[C@@H](OS(=O)(=O)c1ccc(C)cc1)C(=O)N3C[C@H]2O (some centres not stated)"
  Answer Label: 0
- Compound: "CC(NNC(=O)c1ccncc1)c1ccc(Cl)c(Cl)c1 (configuration not stated)"
  Answer Label: 0
- Compound: "Cc1ccc(NC(=O)c2ccccc2C(=O)O)cc1C"
  Answer Label: 0
- Compound: "O=[N+]([O-])c1ccc2c(c1)/C(=N/N=C1c3ccccc3Cc3ccccc31)c1cc([N+](=O)[O-])cc([N+](=O)[O-])c1-2"
  Answer Label: 0
- Compound: "NC(CCCNc1ccc(O)cc1)C(=O)O (configuration not stated)"
  Answer Label: 0
- Compound: "COc1cc2c(c(OC)c1OC)-c1ccc(SC)c(=O)cc1[C@@H](NCc1ccccc1[N+](=O)[O-])CC2"
  Answer Label: 1
- Compound: "CCOC1c2cc(OC)c(OC)cc2-c2ccc3ccccc3c2N1C (configuration not stated)"
  Answer Label: 0
- Compound: "CN/N=C(\\C(=O)Nc1ccc([N+](=O)[O-])cc1[N+](=O)[O-])C1NC(=O)NC1=O (configuration not stated)"
  Answer Label: 0
- Compound: "C[n+]1c2n(c3nc(N)[nH]c(=O)c31)C1OC(C2)C(O)C1O (configuration not stated)"
  Answer Label: 0
- Compound: "C[C@@H](NC(=O)[C@@H]1C[C@]1(C)CO)c1cccc2ccccc12"
  Answer Label: 0
- Compound: "O=C(CCc1nnc(S)[nH]1)Nc1cc(Cl)c(Cl)cc1Cl"
  Answer Label: 0
- Compound: "COc1ccc(C(c2ccccc2)(c2ccc(OC)cc2)N2C(=O)NC3C(CCCCC(=O)NCCCCCCOP(OCCC#N)N(C(C)C)C(C)C)SCC32)cc1 (configuration not stated)"
  Answer Label: 0
- Compound: "C[C@@H](c1ccccc1)n1c(N)c(-c2ccccn2)c2ccc([N+](=O)[O-])cc2c1=O"
  Answer Label: 0
- Compound: "COC(=O)/C(=C(\\C)NC(C)=O)c1c(C(=O)OC)[nH]c2ccccc12"
  Answer Label: 0
- Compound: "CCc1n[nH]c(=O)n1N"
  Answer Label: 0
- Compound: "Cc1ccc([N+](=O)[O-])cc1NC(=O)C(=O)Cc1nc2ccc(C(=O)c3ccccc3)cc2nc1O"
  Answer Label: 0
- Compound: "CC1CCC2(OC1)OC1CC3C4CCC5CC(O)CCC5(C)C4CC(=O)OC3(C)C1C2C (configuration not stated)"
  Answer Label: 0
- Compound: "C[Si](C)(C)C1=C2C(=O)c3ccccc3C(=O)C2=C([Si](C)(C)C)[C@@H]2CCCC[C@H]12"
  Answer Label: 0
- Compound: "Cn1c2ccccc2c2cc(-c3ccccc3)c3c(c21)C(=O)c1ccccc1C3=O"
  Answer Label: 0
- Compound: "COc1cc(C(O)C(=O)c2nc3ccc([N+](=O)[O-])cc3nc2O)ccc1O (configuration not stated)"
  Answer Label: 0
- Compound: "COc1ccc(C(Nc2ncccn2)c2cc3c(cc2O)OCO3)cc1 (configuration not stated)"
  Answer Label: 0
- Compound: "c1ccc(-c2c3c(nc4c2CC[C@H]4NC2=NCCN2)[C@@H](NC2=NCCN2)CC3)cc1"
  Answer Label: 0
- Compound: "O=C1c2ccccc2-c2nnc3c(c21)Cc1ccccc1C3"
  Answer Label: 0
- Compound: "CN(C(=O)c1ccco1)C(=S)N1CCN(c2ccccn2)CC1"
  Answer Label: 0
- Compound: "[O-]/[N+](=C\\c1ccccc1OC(=S)S)c1ccc(Cl)cc1"
  Answer Label: 0
- Compound: "CCOC(=O)C1C=C2O[C@@H]3OC4(CCCCC4)O[C@@H]3C2C2C(=O)CCC(=O)[C@@]12C(=O)OC (some centres not stated)"
  Answer Label: 0
